- SUBJECT_OF_TEST: Phosphoglycerate kinase, glycosomal (Trypanosoma brucei brucei) (UniProt P07378)
- Sequence (P07378 whole entry, looked up): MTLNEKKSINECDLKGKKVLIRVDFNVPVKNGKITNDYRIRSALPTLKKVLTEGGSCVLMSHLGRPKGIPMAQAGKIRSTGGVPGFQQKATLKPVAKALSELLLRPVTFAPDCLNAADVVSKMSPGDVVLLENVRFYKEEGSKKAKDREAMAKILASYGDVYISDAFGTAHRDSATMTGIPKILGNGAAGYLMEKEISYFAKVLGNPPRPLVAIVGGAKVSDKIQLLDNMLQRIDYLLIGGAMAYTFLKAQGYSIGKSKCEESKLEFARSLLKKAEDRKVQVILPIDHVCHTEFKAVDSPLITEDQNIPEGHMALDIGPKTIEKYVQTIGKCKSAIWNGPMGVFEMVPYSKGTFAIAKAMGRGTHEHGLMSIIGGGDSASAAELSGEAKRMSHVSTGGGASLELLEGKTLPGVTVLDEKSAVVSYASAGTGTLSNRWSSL
- ASSAY_EXPLANATION: qHTS Validation Assay to Find Inhibitors of Phosphoglycerate Kinase (AID 504547)
- TEST_CONDITIONS: enzymatic PGK inhibition, coupled luminescence read-out; series mostly up to 57.5 µM
Active and inactive are the calls of the source. The call rests on the fitted dose curve; in most records, active means well fitted inhibition curve with a large enough effect; inconclusive means small, poorly fitted or top-dose-only effect; inactive means flat fitted curve, though single readings scatter.
OUTCOME_MEASURE: outcome

Recorded results for 4 compounds are shown here.
>  <COMPOUND>
NCCc1c[nH]c2ccccc12

>  <OUTCOME_MEASURE>
outcome

>  <REPORTED>
inactive

$$$$
>  <COMPOUND>
Cc1c(C(=O)c2cccc3ccccc23)c2cccc3c2n1[C@H](CN1CCOCC1)CO3

>  <OUTCOME_MEASURE>
outcome

>  <REPORTED>
inactive

$$$$
>  <COMPOUND>
CC[C@@H](C(N)=O)N1CCCC1=O

>  <OUTCOME_MEASURE>
outcome

>  <REPORTED>
inactive

$$$$
>  <COMPOUND>
NC1CCc2cc(O)c(O)cc2C1 (centres undefined)

>  <OUTCOME_MEASURE>
outcome

>  <REPORTED>
inactive

$$$$

Below is a list of compounds. For each, state its recorded outcome.
1. O=C(N[C@H]1CN2CCC1CC2)c1ccc(Cl)cc1
2. NC(CP(=O)(O)O)C(=O)O (centres undefined)
3. Cc1nccc2c1[nH]c1ccccc12
4. NCCc1c[nH]c2ccc(O)cc12
5. COC(=O)[C@@H](N)CCCN=C(N)N[N+](=O)[O-]

1: inactive; 2: inactive; 3: inactive; 4: inactive; 5: inactive
